Field: MTD. Provide a value for each of the compounds that follow.
assay-protocol: Toxicity in ip dosed mouse allografted with mouse L1210 cells administered qd from day 1 to 5 of challenge
Assay type: organism-based
experimental-parameters: in vivo

Need MTD, item "CS(=O)(=O)Nc1ccc(Nc2c3ccccc3nc3cccnc23)cc1"
> 500 mg/kg

Need MTD, item "COc1cc(Nc2c3ccccc3nc3ccc([N+](=O)[O-])cc23)ccc1NS(C)(=O)=O"
> 500 mg/kg

Need MTD, item "CS(=O)(=O)Nc1ccc(Nc2c3ccccc3nc3ccncc23)cc1"
> 500 mg/kg

Need MTD, item "COc1cc(Nc2c3ccccc3nc3cccnc23)ccc1NS(C)(=O)=O"
220 mg/kg

Need MTD, item "CS(=O)(=O)Nc1ccc(Nc2c3ccccc3nc3cnccc23)cc1"
> 500 mg/kg

Need MTD, item "CS(=O)(=O)Nc1ccc(Nc2c3ccccc3nc3c([N+](=O)[O-])cccc23)cc1"
> 500 mg/kg

Need MTD, item "CS(=O)(=O)Nc1ccc(Nc2c3ccccc3nc3ncccc23)cc1"
> 500 mg/kg

Need MTD, item "CS(=O)(=O)Nc1ccc(Nc2c3ccccc3nc3cccc([N+](=O)[O-])c23)cc1"
75 mg/kg

Need MTD, item "COc1cc(Nc2c3ccccc3nc3ccncc23)ccc1NS(C)(=O)=O"
500 mg/kg

---

assay-protocol: Ionization constant, pKa of the compound in 20% DMF-buffer mixture by UV spectrophotometry
Format: physicochemical
readout-kind: pKa
Lab note: record the figure alone, no unit after it.

Need pKa, item "CS(=O)(=O)Nc1ccc(Nc2c3ccccc3nc3ccncc23)cc1"
5.73

Need pKa, item "CS(=O)(=O)Nc1ccc(Nc2c3ccccc3nc3ccc([N+](=O)[O-])cc23)cc1"
5.42

Need pKa, item "COc1cc(Nc2c3ccccc3nc3ncccc23)ccc1NS(C)(=O)=O"
6.09

Need pKa, item "COc1cc(Nc2c3ccccc3nc3cc([N+](=O)[O-])ccc23)ccc1NS(C)(=O)=O"
5.72

Need pKa, item "COc1cc(Nc2c3ccccc3nc3ccc([N+](=O)[O-])cc23)ccc1NS(C)(=O)=O"
5.63

---

assay-protocol: Lipophilic-hydrophilic balance, Rm of the compound by reversed-phase partition chromatography
Type: physicochemical
# if measured Rm < -0.3: Criterion met  # else: Criterion not met

Decide: Rm of "COc1cc(Nc2c3ccccc3nc3ncccc23)ccc1NS(C)(=O)=O" strictly below -0.3?
Criterion not met

Decide: Rm of "CS(=O)(=O)Nc1ccc(Nc2c3ccccc3nc3ccc(N)cc23)cc1" strictly below -0.3?
Criterion met

Decide: Rm of "CS(=O)(=O)Nc1ccc(Nc2c3ccccc3nc3cnccc23)cc1" strictly below -0.3?
Criterion met

Decide: Rm of "CS(=O)(=O)Nc1ccc(Nc2c3ccccc3nc3ccncc23)cc1" strictly below -0.3?
Criterion met

Decide: Rm of "COc1cc(Nc2c3ccccc3nc3ccncc23)ccc1NS(C)(=O)=O" strictly below -0.3?
Criterion not met

Decide: Rm of "COc1cc(Nc2c3ccccc3nc3cccc([N+](=O)[O-])c23)ccc1NS(C)(=O)=O" strictly below -0.3?
Criterion not met

---

Field: Rm. Provide a value for each of the compounds that follow.
assay-protocol: Lipophilic-hydrophilic balance, Rm of the compound by reversed-phase partition chromatography
Assay type: physicochemical
Lab note: record the figure alone, no unit after it.

Need Rm, item "COc1cc(Nc2c3ccccc3nc3cccnc23)ccc1NS(C)(=O)=O"
-0.39

Need Rm, item "CS(=O)(=O)Nc1ccc(Nc2c3ccccc3nc3cc(N)ccc23)cc1"
-0.17

Need Rm, item "CS(=O)(=O)Nc1ccc(Nc2c3ccccc3nc3cccc([N+](=O)[O-])c23)cc1"
-0.09
